assayed-system: Gal4 DNA binding domain fused to the LBD of LXRβ in HEK293 cells (Homo sapiens (Human))
Sequence (P55055 222-460 limits assumed): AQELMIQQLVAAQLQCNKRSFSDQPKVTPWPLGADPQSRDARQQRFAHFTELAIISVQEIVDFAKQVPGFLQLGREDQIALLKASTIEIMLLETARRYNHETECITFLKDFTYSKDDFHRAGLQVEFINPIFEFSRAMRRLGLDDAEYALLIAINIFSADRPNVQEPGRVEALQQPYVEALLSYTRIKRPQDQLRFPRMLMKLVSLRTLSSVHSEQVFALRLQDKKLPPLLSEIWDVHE
assay-summary: cell-based
Measured pEC50 values are reported for all entries that follow.
Lab note — pEC50 values are minus log10 of concentrations in M.

Inquiry: Any idea what pEC50 was measured for CO[C@H](C)[C@@H]1CN(c2ccc(CO)c(S(C)(=O)=O)c2)CCN1c1ncc(CO)c(C(F)(F)F)n1 (single isomer, unassigned) ?
Reply text: 6.44

Inquiry: Would you kindly repeat that for CS(=O)(=O)c1cc(N2CCN(C[C@H]3CC[C@@H](C(F)(F)F)CC3)[C@@H](c3ccccc3Cl)C2)ccc1C(N)=O (single isomer, unassigned) ?
Reply text: 6.26

Inquiry: Would you kindly repeat that for CC(C)[C@@H]1CN(c2ccc(F)c(S(C)(=O)=O)c2Cl)CCN1c1ncc(Cl)c(C2CC2)n1 ?
Reply text: 6.12

Inquiry: Would you kindly repeat that for CC(C)[C@H]1CN(c2cccc(S(C)(=O)=O)c2)CCN1CC1CCCOC1 (stereo partly shown) ?
Reply text: 6.17

***
Inquiry: Any idea what pEC50 was measured for CC(C)[C@@H]1CN(c2ccc(F)c(S(C)(=O)=O)c2)CCN1C(=O)OCC(F)(F)F ?
Reply text: 6.14

###

assayed-system: Gal4 DNA binding domain fused to the LBD of LXRα in HEK293 cells (Homo sapiens (Human))
Sequence (Q13133 209-447): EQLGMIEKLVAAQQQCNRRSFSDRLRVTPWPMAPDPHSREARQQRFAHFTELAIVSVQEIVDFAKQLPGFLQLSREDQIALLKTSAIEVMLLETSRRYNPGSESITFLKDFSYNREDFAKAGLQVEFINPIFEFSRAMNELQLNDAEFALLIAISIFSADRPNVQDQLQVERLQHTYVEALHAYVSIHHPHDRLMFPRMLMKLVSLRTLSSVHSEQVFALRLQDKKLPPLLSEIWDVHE
assay-summary: LXR luciferase transcriptional reporter gene assay, agonist mode, LXRα
Format: cell-based
measurement-context: read-out: Cell LXRα EC50
Measured pEC50 values are reported for all entries that follow.
Lab note — pEC50 values are minus log10 of concentrations in M.

Inquiry: Any idea what pEC50 was measured for CS(=O)(=O)c1cc(N2CCN(C[C@H]3CC[C@@H](C(F)(F)F)CC3)[C@@H](c3ccccc3Cl)C2)ccc1C(N)=O (single isomer, unassigned) ?
Reply text: 6.11

Inquiry: Would you kindly repeat that for CC(C)[C@H]1CN(c2cccc(S(C)(=O)=O)c2)CCN1CC1CCCOC1 (some centres unmarked) ?
Reply text: 5.10

Inquiry: Would you kindly repeat that for CS(=O)(=O)c1cc(N2CCN(C[C@H]3CC[C@@H](C(F)(F)F)CC3)[C@H](c3ccccc3)C2)ccc1C#N (single isomer, unassigned) ?
Reply text: 5.00

Inquiry: Would you kindly repeat that for CS(=O)(=O)c1cccc(N2CCN(C[C@H]3CC[C@@H](C(F)(F)F)CC3)[C@H](c3ccccc3)C2)c1 (single isomer, unassigned) ?
Reply text: 5.35

***
Inquiry: Any idea what pEC50 was measured for CC(C)[C@H]1CC[C@H](CN2CCN(c3ccc(CO)c(S(C)(=O)=O)c3)C[C@@H]2c2ccccc2)CC1 (single isomer, unassigned) ?
Reply text: 6.10

Inquiry: Would you kindly repeat that for CS(=O)(=O)c1cccc(N2CCN(C[C@H]3CC[C@]4(CC3)CC4(F)F)[C@H](c3ccccc3)C2)c1 ?
Reply text: 5.14

Inquiry: Would you kindly repeat that for COC(=O)c1ccnc(N2CCN(c3ccc(F)c(S(C)(=O)=O)c3)C[C@H]2C(C)C)n1 ?
Reply text: 5.96

Inquiry: Would you kindly repeat that for CS(=O)(=O)c1cccc(N2CCN(C[C@@H]3CC[C@@H](C(F)(F)F)OC3)[C@@H](c3ccc(F)cc3)C2)c1 (single isomer, unassigned) ?
Reply text: 5.61

Inquiry: Would you kindly repeat that for CC(C)[C@@H]1CN(c2ccc(F)c(S(C)(=O)=O)c2)CCN1c1nc2ccccc2s1 ?
Reply text: 6.11

###

assayed-system: UniProtKB Q13133
assay-summary: Human LXRα coactivator recruitment FRET assay, agonist mode
Type: biochemical
measurement-context: agonist mode
Is FRET LXRα efficacy at least 60%? Then 1. If not, -1.

Previously resolved entries follow.
Inquiry: Record CC(C)(O)[C@@H]1CN(c2cccc(S(C)(=O)=O)c2)CCN1c1nccc(C(F)(F)F)n1 ; criterion: FRET LXRα efficacy no lower than 60%. Met?
Reply text: 1

Inquiry: Would you kindly repeat that for CC(C)[C@@H]1CN(c2ccc(C(N)=O)c(S(C)(=O)=O)c2)CCN1C(=O)OC(C)(C)C ?
Reply text: 1

Inquiry: Would you kindly repeat that for CS(=O)(=O)c1cccc(N2CCN(Cc3ccc(C(F)(F)F)c(Cl)c3)C(C3CCCCC3)C2)c1 (centres unmarked) ?
Reply text: 1

Inquiry: Would you kindly repeat that for CS(=O)(=O)c1cccc(N2CCN(c3nccc(C(F)(F)F)n3)[C@H](c3ccc(F)cc3)C2)c1 ?
Reply text: -1

Inquiry: Would you kindly repeat that for CS(=O)(=O)c1cccc(N2CCN(C[C@H]3CC[C@@H](C(F)F)CC3)[C@H](c3ccccc3)C2)c1 (single isomer, unassigned) ?
Reply text: -1

***
Inquiry: Record CS(=O)(=O)c1cc(N2CCN(C[C@H]3CC[C@@H](C(F)(F)F)CC3)[C@H](c3ccccc3)C2)ccc1C(N)=O (single isomer, unassigned) ; criterion: FRET LXRα efficacy no lower than 60%. Met?
Reply text: -1

Inquiry: Would you kindly repeat that for CS(=O)(=O)c1cccc(N2CCN(C[C@H]3CC[C@@H](C(F)F)CC3)[C@@H](c3ccccc3)C2)c1 (single isomer, unassigned) ?
Reply text: -1

Inquiry: Would you kindly repeat that for Cc1nc(N2CCN(c3ccc(F)c(S(C)(=O)=O)c3)C[C@H]2C(C)C)ncc1F ?
Reply text: 1

Inquiry: Would you kindly repeat that for CC(C)c1ccc(CN2CCN(c3cccc(S(C)(=O)=O)c3)CC2c2ccccc2)cn1 (centres unmarked) ?
Reply text: -1

Inquiry: Would you kindly repeat that for CS(=O)(=O)c1cccc(N2CCN(CC3CCC(O)(C(F)(F)F)CC3)[C@@H](c3ccccc3)C2)c1 (some centres unmarked) ?
Reply text: -1

Inquiry: Would you kindly repeat that for CS(=O)(=O)c1cccc(N2CCN(Cc3ccc(C(F)(F)F)nc3)[C@@H](c3ccccc3Cl)C2)c1 (single isomer, unassigned) ?
Reply text: -1

###

assayed-system: UniProtKB Q13133
assay-summary: LXR α radioligand binding assay (SPA, competition with [3H]TO901317)
measurement-context: read-out: LXRα Binding Ki
experimental-readout: pKi
Lab note — pKi values are minus log10 of concentrations in M.

Inquiry: Any idea what pKi was measured for CC(C)[C@@H]1CN(c2ccc(F)c(S(C)(=O)=O)c2)CCN1c1ncc(O)c(C(F)(F)F)n1 ?
Reply text: 6.77

Inquiry: Would you kindly repeat that for CC(C)[C@@H]1CN(c2ccc(F)c(S(C)(=O)=O)c2)CCN1c1ccc(C(F)(F)F)nn1 ?
Reply text: 6.29

Inquiry: Would you kindly repeat that for CC(C)[C@@H]1CN(c2ccc(F)c(S(C)(=O)=O)c2)CCN1c1ncc(C(F)(F)F)c(Cl)n1 ?
Reply text: 7.52

Inquiry: Would you kindly repeat that for COCc1ccc(N2CCN(C[C@H]3CC[C@H](C(F)(F)F)CC3)[C@@H](c3ccccc3)C2)cc1S(C)(=O)=O ?
Reply text: 4.86

Inquiry: Would you kindly repeat that for CC[C@H](O)c1cnc(N2CCN(c3ccc(F)c(S(C)(=O)=O)c3)C[C@H]2C(C)C)nc1C(F)(F)F (single isomer, unassigned) ?
Reply text: 6.58

Inquiry: Would you kindly repeat that for CCOC(=O)c1cnc(N2CCN(c3ccc(-c4nc(C(N)=O)cs4)c(S(C)(=O)=O)c3)C[C@H]2C(C)C)nc1C(F)(F)F ?
Reply text: 6.39

Inquiry: Would you kindly repeat that for CS(=O)(=O)c1cc(N2CCN(C[C@H]3CC[C@H](C(F)(F)F)CC3)[C@@H](c3ccccc3)C2)ccc1C(N)=O (single isomer, unassigned) ?
Reply text: 5.49

Inquiry: Would you kindly repeat that for CC(C)[C@H]1CC[C@H](CN2CCN(c3ccc(CO)c(S(C)(=O)=O)c3)C[C@H]2c2ccccc2)CC1 (single isomer, unassigned) ?
Reply text: 4.51

Inquiry: Would you kindly repeat that for CCOC(=O)CN(C)C(=O)c1cnc(N2CCN(c3ccc(F)c(S(C)(=O)=O)c3)C[C@H]2C(C)C)nc1C(F)(F)F ?
Reply text: 5.66

Consider now this further molecule.
Inquiry: Any idea what pKi was measured for CC(C)[C@@H]1CN(c2ccc(F)c(S(C)(=O)=O)c2)CCN1c1ncc(C(F)(F)F)cc1Cl ?
Reply text: 7.14

###

assayed-system: LXR α LBD protein (Homo sapiens (Human), UniProt Q13133)
assay-summary: LXR α radioligand binding assay (SPA, competition with [3H]TO901317)
measurement-context: read-out: LXRα Binding Ki
Measured Ki values are reported for all entries that follow.

Inquiry: Any idea what Ki was measured for CS(=O)(=O)c1cccc(N2CCN(C[C@H]3CC[C@@](C)(O)CC3)[C@@H](c3ccccc3)C2)c1 (single isomer, unassigned) ?
Reply text: 1270 nM

###

Measured Ki values are reported for all entries that follow.
assayed-system: LXR α LBD protein (Homo sapiens (Human), UniProt Q13133)
assay-summary: LXR α radioligand binding assay (SPA, competition with [3H]TO901317)
measurement-context: read-out: LXRα Binding Ki
Numbers only here, please. The scale is nM.

// known answers, use as guide
Inquiry: Any idea what Ki was measured for CC(C)[C@@H]1CN(c2ccc(F)c(S(C)(=O)=O)c2)CCN1c1ncc(C(=O)N(C)C2CN(C(=O)OC(C)(C)C)C2)c(C(F)(F)F)n1 ?
Reply text: 670

Inquiry: Would you kindly repeat that for CS(=O)(=O)c1cc(N2CCN(C[C@H]3CC[C@@H](C(F)(F)F)CC3)[C@H](c3ccccc3Cl)C2)ccc1C(N)=O (single isomer, unassigned) ?
Reply text: 3650

Inquiry: Would you kindly repeat that for Cc1csc(-c2ccc(N3CCN(c4ncc(CO)c(C(F)(F)F)n4)[C@H](C(C)C)C3)cc2S(C)(=O)=O)n1 ?
Reply text: 29

Inquiry: Would you kindly repeat that for CC(C)[C@@H]1CN(c2ccc(F)c(S(C)(=O)=O)c2)CCN1c1ncc(Cc2ccc(C(=O)O)cc2)c(C(F)(F)F)n1 ?
Reply text: 197

***
Inquiry: Any idea what Ki was measured for CC(C)[C@H]1CN(c2ccc(CO)c(S(C)(=O)=O)c2)CCN1C[C@H]1CC[C@@H](C(F)(F)F)OC1 ?
Reply text: 356

Inquiry: Would you kindly repeat that for CS(=O)(=O)c1cccc(N2CCN(C[C@H]3C[C@@H]4[C@H](C3)C4(F)F)[C@@H](c3ccccc3)C2)c1 ?
Reply text: 397

Inquiry: Would you kindly repeat that for Cc1ccc(C2CC2)nc1N1CCN(c2cccc(S(C)(=O)=O)c2)C[C@H]1C(C)C ?
Reply text: 724

Inquiry: Would you kindly repeat that for CS(=O)(=O)c1cc(N2CCN(C[C@H]3CC[C@@H](C(F)(F)F)CC3)[C@H](c3ccccc3)C2)ccc1C(N)=O (single isomer, unassigned) ?
Reply text: 3130

Inquiry: Would you kindly repeat that for CC1(C)CCC(CN2CCN(c3ccc(CO)c(S(C)(=O)=O)c3)C[C@H]2c2ccccc2)CC1 (single isomer, unassigned) ?
Reply text: 2860

Inquiry: Would you kindly repeat that for Cc1nnc(-c2ccc(N3CCN(c4ncc(CO)c(C(F)(F)F)n4)[C@H](C(C)C)C3)cc2S(C)(=O)=O)o1 ?
Reply text: 1970

Inquiry: Would you kindly repeat that for CC(C)[C@@H]1CN(c2ccc(F)c(S(C)(=O)=O)c2)CCN1c1ncc(C(=O)N(C)CCCNC(=O)OC(C)(C)C)c(C(F)(F)F)n1 ?
Reply text: 1420

Inquiry: Would you kindly repeat that for CS(=O)(=O)c1cc(N2CCN(c3ncc(CO)c(C(F)(F)F)n3)[C@H](c3ccc(F)cc3)C2)ccc1F ?
Reply text: 1160

The measurements presented in this section are drawn from patent US10144715B2.
